# Test system: Kornkäfer (sitophilus granarius L)
# test name: whole plant or invertebrate
# Type: in vivo
# protocol conditions: amine 1 mg/ml mixed 1 : 1 with Talcord 0,01 mg/ml; 3 h
assay metric: Wirksamkeit in % Substanz +Talcord

- compound: "c1ccc2cc(CN3CCCCC3)ccc2c1 [2-N-Piperidino-methyl-naphthalin]"
  assay metric: "Wirksamkeit in % Substanz +Talcord"
  recorded result: "88,0%"
- compound: "CCOCCN1CCCC1 [N-1-(1'-Ethoxiethyl-(2))-pyrrolidin]"
  assay metric: "Wirksamkeit in % Substanz +Talcord"
  recorded result: "0%"
- compound: "CCCCCCCCCCCCN1CCOCC1 [N-1-Dodecyl-morpholin]"
  assay metric: "Wirksamkeit in % Substanz +Talcord"
  recorded result: "14,8%"
- compound: "CC(C)=CCC/C(C)=C\\CN1CCCCC1"
  assay metric: "Wirksamkeit in % Substanz +Talcord"
  recorded result: "26,8%"
- compound: "CCCCOC(CN1CCCCC1)OCCCC [2-N-Piperidino-ethyl-dibutyl-acetal]"
  assay metric: "Wirksamkeit in % Substanz +Talcord"
  recorded result: "36,0%"
- compound: "CCCCCCCCCCCCN1CCCCCC1 [N-1-Dodecyl-hexamethylenimin]"
  assay metric: "Wirksamkeit in % Substanz +Talcord"
  recorded result: "24,0%"
- compound: "CCCCCCCCCCCCN1CC1 [N-1-Dodecyl-ethylenimin]"
  assay metric: "Wirksamkeit in % Substanz +Talcord"
  recorded result: "36,0%"
- compound: "C(CCCN1CCCCC1)CCN1CCCCC1 [1,6-N,N-Di-piperidino-hexan]"
  assay metric: "Wirksamkeit in % Substanz +Talcord"
  recorded result: "2,8%"
- compound: "CCCCCCCCCCCN1CCCCCC1 [N-1-Undecyl-hexamethylenimin]"
  assay metric: "Wirksamkeit in % Substanz +Talcord"
  recorded result: "81,2%"
- compound: "CCCCCN1CCOCC1 [N-1-Pentyl-morpholin]"
  assay metric: "Wirksamkeit in % Substanz +Talcord"
  recorded result: "37,2%"

###

# System: Kornkäfer (sitophilus granarius L)
# test name: whole plant or invertebrate
# Assay type: in vivo
# protocol conditions: amine 1 mg/ml in Aceton mixed 1 : 1 with Aceton, 2 ml per dish; 25 weevils, dead counted after 3 h
Items are presented alongside their recorded Wirksamkeit in % Substanz allein.
assay metric: Wirksamkeit in % Substanz allein (%)

- compound: "c1ccc(OCCCN2CCCCCC2)cc1"
  experimental target: "Kornkäfer (sitophilus granarius L)"
  unit annotation: "%"
  recorded result: 0
- compound: "C(CCCCN1CCCC1)CCCN1CCCC1"
  experimental target: "Kornkäfer (sitophilus granarius L)"
  unit annotation: "%"
  recorded result: 0
- compound: "OCCN1CCOCC1"
  experimental target: "Kornkäfer (sitophilus granarius L)"
  unit annotation: "%"
  recorded result: 0
- compound: "C#CCN1CCCC1"
  experimental target: "Kornkäfer (sitophilus granarius L)"
  unit annotation: "%"
  recorded result: 0
- compound: "OCCN1CCCC1"
  experimental target: "Kornkäfer (sitophilus granarius L)"
  unit annotation: "%"
  recorded result: 0
- compound: "CN(C)C(=O)N1CCCCC1"
  experimental target: "Kornkäfer (sitophilus granarius L)"
  unit annotation: "%"
  recorded result: 0
- compound: "CCOC(=O)C(CC)N1CCCCC1 (stereo not shown)"
  experimental target: "Kornkäfer (sitophilus granarius L)"
  unit annotation: "%"
  recorded result: 0
- compound: "C=CC(C)(CCC=C(C)C)N1CCCCCC1 (stereo not shown)"
  experimental target: "Kornkäfer (sitophilus granarius L)"
  unit annotation: "%"
  recorded result: 0
- compound: "CCOCCN1CCCCC1"
  experimental target: "Kornkäfer (sitophilus granarius L)"
  unit annotation: "%"
  recorded result: 0
